System: MDA-MB-468 breast
Procedure Text: NCI-60 one-dose screen, 48 h (100 = growth as untreated, 0 = no growth, -100 = all killed)
Experimental Conditions: 10 µM unless noted
This is part of a sample that, as a whole, favours compounds with a hit. Of some 83,000 tested, about 20% had one in any assay.
Parameter Measured: growth (%)
# value in %; strip the unit string

Example cases with answers are listed next.
{"Compound": "COc1ccn(C)c(=O)c1C#N", "Unit Text": "%", "growth": 102}
{"Compound": "CC(=O)O[C@H](C[C@H](C(C)C)N(C)C(=O)[C@@H](NC(=O)[C@H]1CCCCN1C)C(C)C)c1nc(C(=O)NC2CCC(C(=O)O)CC2)cs1 (some centres undefined)", "Unit Text": "%", "growth": 29.6}

stdin: What growth value was documented for this compound, O=[N+]([O-])/C=C\c1ccc(Cl)c(Cl)c1 ?
stdout: 12.4

stdin: Do the same for c1ccc([As]=[As]c2ccccc2)cc1 (centres undefined) please
stdout: -55.7

stdin: Same for [Cl][Sn]([c]1ccccc1)([c]1ccccc1)[c]1ccccc1
stdout: -75

stdin: What about C[C@]12CC[C@H]3[C@@H](C[C@@H]4SC(Nc5cccc(F)c5)=N[C@@]45CC(=O)CC[C@]35C)[C@@H]1CCC2=O ?
stdout: -2.99

stdin: Follow-up entry: CC[C@H](C)[C@H](NC(=O)[C@H]1CCCCN1C)C(=O)N(C)[C@H](C[C@@H](OC(C)=O)c1nc(C(=O)NC23C4C5C2C2C3C4C52C(=O)OC)cs1)C(C)C (some centres undefined)
stdout: -2.75

stdin: Then this compound: [N-]=[N+]=CC(=O)CCC(=O)C=[N+]=[N-]
stdout: 113

stdin: How about this compound: CCC1([N+](=O)[O-])COP(=O)(NCc2cccnc2)OC1 (centres undefined)
stdout: 104

stdin: Another: COc1ccc(/C=C\c2cc(OC)c(OC)c(OC)c2)cc1OCC(=O)Nc1nc2ccc(C(F)(F)F)cc2s1
stdout: 1.38

stdin: Now consider NC(=O)C(Cl)Cl and answer again.
stdout: 103

stdin: Same for COC(=O)[C@@H](NC(=O)c1cn(CCC2CCCCC2)c2ccccc12)C(C)(C)C
stdout: 82.3

stdin: // repeat for CC[C@H](C)[C@H](NC(=O)[C@H]1CCCCN1C)C(=O)N(C)[C@H](C[C@@H](O)c1nc(C(=O)N[C@@H](Cc2ccccc2)C[C@H](C)C(=O)O)cs1)C(C)C and report
stdout: 70.1

stdin: Another compound: O=C(O)C(F)F
stdout: 91.4

stdin: Moving on to COc1ccc(Nc2ccc([N+](=O)[O-])cc2[N+](=O)[O-])cc1CN(CCCl)CCCl
stdout: 10.1

stdin: Likewise for CC1(C)S[C@H]2CC[C@H]3OC(=O)[C@@H]1N23 ?
stdout: 95.7

stdin: Same read-out for COCCOCCOCCOc1ccc(-n2cc(-c3ccc(O[C@H]4O[C@@H]5OC6(C)CC[C@H]7[C@H](C)CC[C@@H]([C@H]4C)[C@@]57OO6)cc3)nn2)cc1 ?
stdout: 13.3

stdin: Would you kindly repeat that for C/C=C\C(=O)O[C@@H]1CC2O[C@@H]3C=C(C)C(=O)C[C@]3(C)[C@]1(C)[C@]21CO1 ?
stdout: -29.7

stdin: // next record CC(C)=CCc1c(O)c(C(=O)CC(C)C)c(O)c2c(-c3ccccc3)cc(=O)oc12
stdout: 23.1

stdin: Repeat with CC(C)(C)OOC(=O)/C=C\C(=O)OOC(C)(C)C
stdout: 108

stdin: Also CC(=O)O[C@H](C[C@H](C(C)C)N(C)C(=O)[C@@H](NC(=O)[C@H]1CCCCN1C)C(C)(C)C)c1nc(C(=O)N[C@@H](Cc2ccccc2)C[C@H](C)C(=O)O)cs1 , if possible.
stdout: 4.72

stdin: Same again, this time with Cc1cc([N+](=O)[O-])c2ccccc2[n+]1[O-]
stdout: -55.7

stdin: Further, for Cc1c2oc3c(C)ccc(C(=O)N[C@@H]4C(=O)N[C@H](C(C)C)C(=O)N5CCC[C@H]5C(=O)N(C)CC(=O)N(C)[C@@H](C(C)C)C(=O)OC4C)c3nc-2c(C(=O)N[C@@H]2C(=O)N[C@H](C(C)C)C(=O)N3CC(=O)C[C@H]3C(=O)N(C)CC(=O)N(C)[C@@H](C(C)C)C(=O)OC2C)c(N)c1=O (some centres undefined) ?
stdout: -37.7

stdin: Next compound up: COC(=O)[C@@H](C)C[C@H](Cc1ccccc1)NC(=O)c1csc([C@@H](C[C@H](C(C)C)N(C)C(=O)[C@@H](NC(=O)[C@H]2CCCN2C)C2CC2)OC(C)=O)n1
stdout: -9.22

###

Tested on: HCC-2998 colon
Procedure Text: NCI-60 one-dose screen, 48 h (100 = growth as untreated, 0 = no growth, -100 = all killed)
Experimental Conditions: 10 µM
The panel holds about 83,000 compounds, 20% with a hit somewhere; the sample as a whole holds those more often. Activity calls are given as the source filed them. Rule for the calls: active = growth percent below 10; inactive = the rest.
Parameter Measured: growth

Solved cases (10 shown):
{"Compound": "C[C@H]1[C@@H](CC(=O)N[C@@H](Cc2coc3ccccc23)B(O)O)O[C@@H]2OC3(C)CC[C@H]4[C@H](C)CC[C@@H]1[C@@]24OO3", "growth": "-97.2% (active)"}
{"Compound": "O=C(/C=C/c1ccc(Cl)cc1Cl)c1nc2ccccc2n1Cc1ccc(F)cc1", "growth": "27.3% (inactive)"}
{"Compound": "Cc1c2oc3c(C)ccc(C(=O)N[C@@H]4C(=O)N[C@H](C(C)C)C(=O)N5CCC[C@H]5C(=O)N(C)CC(=O)N(C)[C@@H](C(C)C)C(=O)OC4C)c3nc-2c(C(=O)N[C@@H]2C(=O)N[C@H](C(C)C)C(=O)N3CC(=O)C[C@H]3C(=O)N(C)CC(=O)N(C)[C@@H](C(C)C)C(=O)OC2C)c(N)c1=O (stereo partly specified)", "growth": "-20% (active)"}
{"Compound": "CC[C@]12C=CCN3CC[C@@]4(c5ccc(OC)cc5N(C)[C@H]4[C@@](O)(C(=O)OC)[C@@H]1OC(=O)CCCC[P+](c1ccc(C)cc1)(c1ccc(C)cc1)c1ccc(C)cc1)[C@@H]32", "growth": "-85.8% (active)"}
{"Compound": "O=C(/C=C/c1ccco1)c1nc2ccccc2n1Cc1ccc(Br)cc1", "growth": "12.7% (inactive)"}
{"Compound": "O=C([Se]C1C=CCCC1)c1ccc(C(=O)[Se]C2C=CCCC2)s1 (stereo unspecified)", "growth": "-67.8% (active)"}
{"Compound": "O=C(/C=C/c1ccccc1Cl)c1nc2ccccc2n1Cc1ccc(F)cc1", "growth": "-99.7% (active)"}
{"Compound": "N#C[Se]CC(=O)Nc1cccc(C(F)(F)F)c1", "growth": "54.7% (inactive)"}
{"Compound": "O=C(/C=C/c1ccco1)c1nc2ccccc2n1Cc1ccc(F)cc1", "growth": "57% (inactive)"}
{"Compound": "CC12OOC(C)(OO1)C2CCC(=O)OCCNc1ccnc2cc(Cl)ccc12 (stereo unspecified)", "growth": "88.5% (inactive)"}

stdin: Return reported growth; argument: CC[C@@]12CC(C(=O)OC)=C3Nc4cc5c(cc4[C@@]34CCN(C[C@H]3O[C@H]31)[C@@H]24)[C@@H]1[C@H](O5)[C@@H](O)[C@@]2(CC)CC(C(=O)OC)=C3Nc4cc(OC)ccc4[C@@]34CCN1[C@@H]24
stdout: -65% (active)

###

System: NCI-H226 lung
Procedure Text: NCI-60 one-dose screen, 48 h (100 = growth as untreated, 0 = no growth, -100 = all killed)
Experimental Conditions: 10 µM
About 83,000 compounds went through this panel and 20% of them were active in at least one assay; those are over-represented in the sample as a whole. Active and inactive are the calls of the source. The calls were made as follows: active = growth percent below 10; inactive = the rest.
Parameter Measured: growth

# count of solved cases: 5
{"Input Smiles": "O=C(/C=C/c1ccc(Br)cc1)c1nc2ccccc2n1Cc1ccc(Br)cc1", "Test System": "NCI-H226 lung", "growth": "-70.1% (active)"}
{"Input Smiles": "C[C@H]1[C@H](OC(=O)CCC(=O)N(CCCc2cn(-c3ccc(C#N)cc3)nn2)CCNc2ccnc3cc(Cl)ccc23)O[C@@H]2OC3(C)CC[C@H]4[C@H](C)CC[C@@H]1[C@@]24OO3", "Test System": "NCI-H226 lung", "growth": "60.3% (inactive)"}
{"Input Smiles": "O=C(/C=C/c1ccc(F)cc1)c1nc2ccccc2n1Cc1ccc(F)cc1", "Test System": "NCI-H226 lung", "growth": "-35.7% (active)"}
{"Input Smiles": "O=C(/C=C/c1cccc(Br)c1)c1nc2ccccc2n1Cc1ccc(F)cc1", "Test System": "NCI-H226 lung", "growth": "14.5% (inactive)"}
{"Input Smiles": "CC[C@]12C=CCN3CC[C@@]4(c5ccc(OC)cc5N(C)[C@H]4[C@@](O)(C(=O)OC)[C@@H]1OC(=O)CCC[P+](C1CCCCC1)(C1CCCCC1)C1CCCCC1)[C@@H]32", "Test System": "NCI-H226 lung", "growth": "-20% (active)"}

stdin: Fill blank: measured growth of the molecule CN(C)CCc1cn(C2CCC2)c2cccc(O)c12 is ____.
stdout: 69.6% (inactive)

stdin: Now consider COC(=O)C[C@](O)(CCC(C)C)C(=O)O[C@H]1C(OC)=C[C@@]23CCCN2CCc2cc4c(cc2[C@@H]13)OCO4 and answer again.
stdout: -20.4% (active)

stdin: Same thing, different molecule: COCCOCCOCCOc1ccc(-n2cc(-c3ccc(O[C@H]4O[C@@H]5OC6(C)CC[C@H]7[C@H](C)CC[C@@H]([C@H]4C)[C@@]57OO6)cc3)nn2)cc1
stdout: 79.7% (inactive)
